Taken from ChEMBL document CHEMBL4689842.

# Test system: HEK-293T
# test-details: Incucyte cell viability with HEK293T; also: filed as whole numbers so only -1 and 0 and 1 occur
# Assay type: toxicity, cell-based
# assay-context: human, 6 h, 10 µM, compound concentration 10 uM, replicate number 2, timepoint 6 hours
Here the recorded Growth Rate is given for each entry.

molecule	Growth Rate
CCCCN1CCC(COC(=O)c2cc(Cl)c(N)c3c2OCCO3)CC1.Cl	1
CC(C)NCC(O)COc1ccc(CCOCC2CC2)cc1.Cl (configuration not stated) [BETAXOLOL HYDROCHLORIDE]	1
C=C1/C(=C\C=C2/CCC[C@]3(C)[C@@H]([C@H](C)/C=C/C=C/C(O)(CC)CC)CC[C@@H]23)C[C@@H](O)C[C@@H]1O	0
CC(=O)OCC(=O)[C@@]1(O)CC[C@H]2[C@@H]3CCC4=CC(=O)CC[C@]4(C)[C@@]3(F)[C@@H](O)C[C@@]21C [FLUDROCORTISONE ACETATE]	0
COc1cccc(OC)c1-c1cc(C(=O)NC2(C(=O)O)C3CC4CC(C3)CC2C4)nn1-c1ccc(C(=O)N(C)CCCN(C)C)cc1C(C)C (configuration not stated)	1
CNCCN1CCC(OCc2ccccc2)CC1	1
O=C(NCc1ccccc1)c1ccc(S(=O)(=O)NCc2ccccc2)cc1	1
O=C(Nc1cnc(Oc2ccc(F)cc2)nc1)N1CCc2ncccc2[C@@H]1c1ccc(F)cc1	1
CC1(C)CCC(C)(C)c2cc(C3(c4ccc(C(=O)O)cc4)OCCO3)ccc21	0
CCOc1cc(N2CCC(O)CC2)ccc1Nc1ncc2c(n1)N(C)c1ccccc1C(=O)N2C	1
COc1ccc(C2(O)OC(=O)C(c3ccc4c(c3)OCO4)=C2Cc2cc(OC)c(OC)c(OC)c2)cc1 (configuration not stated)	0
O=C(O)[C@@H]1[C@@H](Cn2nnc3ccccc3c2=O)CC[C@H]1C(=O)c1ccc(OCCC2CCOCC2)cc1	1
Cc1sc2c(c1C)C(c1ccc(Cl)cc1)=N[C@@H](CC(=O)OC(C)(C)C)c1nnc(C)n1-2	0
N#Cc1ccc(NC(=O)Nc2ccccc2Br)c2nn[nH]c12	1
Nc1c(C(=O)NCc2ccc(C(=O)NCCCC3CCCCC3)cc2)cnn1-c1ccccc1	0
Clc1cccc(-c2nnnn2Cc2cccnc2)c1Cl	0
Cn1cncc1[C@@](O)(COc1ccc(C#N)cc1-c1ccc(OC(F)(F)F)cc1)c1ccc(C#N)cc1	0

---

# Tested on: Fibroblast
# test-details: Incucyte cell viability with human fibroblast; also: filed as whole numbers so only -1 and 0 and 1 occur
# Format: toxicity, cell-based
# assay-context: 6 h, 10 µM, compound concentration 10 uM, replicate number 1, timepoint 6 hours
Where a SMILES comes first, the peptide text is derived from it. [ ]: non-standard residue; d: D form. Arg(Me) = CNC(=N)NCCC[C@H](N)C(=O)O; d4Pal = N[C@H](Cc1ccncc1)C(=O)O; azaGly = NNC(=O)O
Here the recorded Growth Rate is given for each entry.

compound	Growth Rate
CC(C)S(=O)(=O)c1ccc2nccc(Nc3ccc4scnc4c3)c2c1	0
Cn1cncc1[C@@](O)(COc1ccc(C#N)cc1-c1ccc(OC(F)(F)F)cc1)c1ccc(C#N)cc1	0
Nc1nc(NCc2ccccc2)nc(-c2ccccc2CO)n1	0
CNC(=N)NCCC[C@H](NC(=O)[C@H](CC(C)C)NC(=O)NNC(=O)[C@H](Cc1ccccc1)NC(=O)[C@H](CO)NC(=O)[C@H](CC(N)=O)NC(=O)[C@@H](Cc1ccncc1)NC(=O)[C@H](N)Cc1ccc(O)cc1)C(=O)N[C@@H](Cc1ccccc1)C(N)=O [KISS1-305] (H-[dY][d4Pal]NSF[azaGly]L[Arg(Me)]F-NH2)	0
NC(=O)c1ccc(NC(=O)NCc2cccc(C(=O)Nc3ccc4c(c3)CNCC4)c2)cc1	0
N#Cc1ccc(NC(=O)Nc2ccccc2Br)c2nn[nH]c12	1
CN(C)c1ncnc(-c2ccc3nc(Nc4cc(CN5CCN(C(=O)CC(F)(F)F)CC5)ccn4)[nH]c3c2)c1Cl	1
